assay: Effect of filament density, poration energy and filament array size on PK profile (Examples 7-9); set-up: species or system guinea pigs; settings: guinea pig, in vivo, topical or ocular, 4 mg, Table 17 # 6: dose 4.00 mg, 5 mJ/filament, filament array area 1.5 cm^2, 400 filaments/cm^2
METRIC NAME: AUC (ng·h/mL)
Field format: number, assumed ng·h/mL, no unit text.

GET /value?item= CN(C)CCc1c[nH]c2ccc(C[C@H]3COC(=O)N3)cc12 &field=AUC returns 4030

====

assay: Administration route study in guinea pigs (Example 5); format: in vivo; conditions: guinea pig, blood, Group 2: 5 mg base/2 ml, oral route
METRIC NAME: AUC (ng·h/mL)
Field format: number, assumed ng·h/mL, no unit text.

GET /value?item= CN(C)CCc1c[nH]c2ccc(C[C@H]3COC(=O)N3)cc12 [Zolmitriptan] &field=AUC returns 353
